So I've got IC50 readings for MAP4K2 (Homo sapiens, UniProt Q12851), take a look.

// known answers, use as guide
Cl.NCC1(c2nc(-c3ccc(Cl)c(O)c3)c(-c3ccncc3)[nH]2)CCCCC1 | > 20 µM
CN1CCN(c2ccc(Nc3ncc(C#N)c(Nc4ccccc4C(N)=O)n3)cc2)CC1.Cl | 1 µM

Pending molecule:
input: # get_value(readout='IC50', item= CN(C)CC(O)COc1ccc(Nc2ncc([N+](=O)[O-])c(Nc3ccccc3O)n2)cc1.O=C(O)C(F)(F)F (stereo not drawn) )
output: > 20 µM

====

Protein target, amino acids: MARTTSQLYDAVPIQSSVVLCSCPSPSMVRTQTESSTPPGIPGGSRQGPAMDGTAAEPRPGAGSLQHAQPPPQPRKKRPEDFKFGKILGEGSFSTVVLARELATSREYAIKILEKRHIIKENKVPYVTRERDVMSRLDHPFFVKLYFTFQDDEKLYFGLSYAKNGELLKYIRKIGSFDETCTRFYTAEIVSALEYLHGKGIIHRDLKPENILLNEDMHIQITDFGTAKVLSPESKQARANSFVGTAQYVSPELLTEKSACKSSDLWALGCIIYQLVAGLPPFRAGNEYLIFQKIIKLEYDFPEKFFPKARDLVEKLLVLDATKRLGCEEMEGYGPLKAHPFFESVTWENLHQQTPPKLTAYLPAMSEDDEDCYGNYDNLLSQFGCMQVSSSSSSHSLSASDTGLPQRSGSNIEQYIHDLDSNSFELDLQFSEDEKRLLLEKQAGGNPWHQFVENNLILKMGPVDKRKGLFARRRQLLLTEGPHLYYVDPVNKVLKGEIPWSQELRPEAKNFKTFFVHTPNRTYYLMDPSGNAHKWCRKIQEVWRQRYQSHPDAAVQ
pIC50: −log10 of the molar value.
MEASURED_PARAMETER: pIC50

CN(C)CC(O)COc1ccc(Nc2ncc([N+](=O)[O-])c(Nc3ccccc3O)n2)cc1.O=C(O)C(F)(F)F (centres unmarked) | < 4.70

input: I have this compound here, `Cl.NCC1(c2nc(-c3ccc(Cl)c(O)c3)c(-c3ccncc3)[nH]2)CCCCC1` , and I need its recorded pIC50.
output: < 4.70

====

Target: UniProt P15056
Sequence (P15056 whole entry): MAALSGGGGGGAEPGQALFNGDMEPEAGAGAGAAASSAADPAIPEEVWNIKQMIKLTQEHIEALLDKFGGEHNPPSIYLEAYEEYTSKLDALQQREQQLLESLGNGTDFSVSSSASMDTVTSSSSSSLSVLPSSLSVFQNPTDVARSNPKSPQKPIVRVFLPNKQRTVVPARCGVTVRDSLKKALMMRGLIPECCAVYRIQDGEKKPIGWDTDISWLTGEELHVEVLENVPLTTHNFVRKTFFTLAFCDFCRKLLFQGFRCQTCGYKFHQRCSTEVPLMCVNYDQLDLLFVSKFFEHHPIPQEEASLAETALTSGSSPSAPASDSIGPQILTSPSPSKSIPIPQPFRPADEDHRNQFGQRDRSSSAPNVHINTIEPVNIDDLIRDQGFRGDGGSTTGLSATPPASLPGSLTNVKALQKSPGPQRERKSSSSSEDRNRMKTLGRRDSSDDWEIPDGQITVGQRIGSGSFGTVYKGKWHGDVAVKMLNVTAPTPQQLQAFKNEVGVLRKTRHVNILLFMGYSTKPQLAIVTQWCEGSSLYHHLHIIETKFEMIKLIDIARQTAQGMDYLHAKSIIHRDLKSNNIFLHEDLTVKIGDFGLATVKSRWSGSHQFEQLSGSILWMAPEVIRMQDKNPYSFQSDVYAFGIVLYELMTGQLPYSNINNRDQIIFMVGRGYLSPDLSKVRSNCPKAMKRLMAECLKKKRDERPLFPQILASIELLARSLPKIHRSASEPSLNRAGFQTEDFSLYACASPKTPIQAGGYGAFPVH
MEASURED_PARAMETER: IC50 (nM)
Unit nM implied. Number only.

input: Provide value of IC50 for this record tested with UniProt P15056: `CN1CCN(c2ccc(Nc3ncc(C#N)c(Nc4ccccc4C(N)=O)n3)cc2)CC1.Cl`
output: 2000

====

Molecular target: UniProtKB Q9NYL2
Sequence (Q9NYL2 whole entry): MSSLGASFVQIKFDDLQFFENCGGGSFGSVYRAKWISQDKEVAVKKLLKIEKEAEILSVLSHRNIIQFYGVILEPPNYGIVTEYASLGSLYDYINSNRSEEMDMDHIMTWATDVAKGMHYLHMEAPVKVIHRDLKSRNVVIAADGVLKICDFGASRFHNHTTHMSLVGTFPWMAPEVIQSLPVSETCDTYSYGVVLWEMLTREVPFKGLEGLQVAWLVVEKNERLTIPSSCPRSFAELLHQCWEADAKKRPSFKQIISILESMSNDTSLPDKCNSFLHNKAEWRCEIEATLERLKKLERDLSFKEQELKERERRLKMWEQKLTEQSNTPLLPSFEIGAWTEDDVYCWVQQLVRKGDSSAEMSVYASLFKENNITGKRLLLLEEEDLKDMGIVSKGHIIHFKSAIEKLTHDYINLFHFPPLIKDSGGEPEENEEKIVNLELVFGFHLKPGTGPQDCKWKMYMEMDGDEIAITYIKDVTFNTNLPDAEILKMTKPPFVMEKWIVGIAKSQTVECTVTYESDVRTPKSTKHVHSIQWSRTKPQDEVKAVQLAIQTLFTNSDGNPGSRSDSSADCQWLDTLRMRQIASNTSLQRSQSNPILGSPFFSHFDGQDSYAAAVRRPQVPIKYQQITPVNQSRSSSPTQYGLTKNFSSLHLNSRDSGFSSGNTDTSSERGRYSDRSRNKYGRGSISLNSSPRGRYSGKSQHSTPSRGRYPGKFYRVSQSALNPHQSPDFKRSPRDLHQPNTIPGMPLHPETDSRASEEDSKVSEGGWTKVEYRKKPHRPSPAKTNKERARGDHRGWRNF
MEASURED_PARAMETER: IC50 (nM)
Numbers only here, please. The scale is nM.

input: Reported IC50 for UniProtKB Q9NYL2, given CN1CCN(c2ccc(Nc3ncc(C#N)c(Nc4ccccc4C(N)=O)n3)cc2)CC1.Cl [TCMDC-134116] ?
output: 950

====

Record type: pIC50 measurement. Applies to: PHKG2 (Homo sapiens, UniProt P15735)
pIC50: −log10 of the molar value.

Consider the worked cases shown below.
CN1CCN(c2ccc(Nc3ncc(C#N)c(Nc4ccccc4C(N)=O)n3)cc2)CC1.Cl [TCMDC-134116] | 5.55
Cl.NCC1(c2nc(-c3ccc(Cl)c(O)c3)c(-c3ccncc3)[nH]2)CCCCC1 [TCMDC-141154] | < 4.70

input: Given CN(C)CC(O)COc1ccc(Nc2ncc([N+](=O)[O-])c(Nc3ccccc3O)n2)cc1.O=C(O)C(F)(F)F (stereo not drawn) [TCMDC-141399] , state its recorded pIC50.
output: < 4.70

====

Molecular target: UniProt O14757
Sequence (O14757 whole entry): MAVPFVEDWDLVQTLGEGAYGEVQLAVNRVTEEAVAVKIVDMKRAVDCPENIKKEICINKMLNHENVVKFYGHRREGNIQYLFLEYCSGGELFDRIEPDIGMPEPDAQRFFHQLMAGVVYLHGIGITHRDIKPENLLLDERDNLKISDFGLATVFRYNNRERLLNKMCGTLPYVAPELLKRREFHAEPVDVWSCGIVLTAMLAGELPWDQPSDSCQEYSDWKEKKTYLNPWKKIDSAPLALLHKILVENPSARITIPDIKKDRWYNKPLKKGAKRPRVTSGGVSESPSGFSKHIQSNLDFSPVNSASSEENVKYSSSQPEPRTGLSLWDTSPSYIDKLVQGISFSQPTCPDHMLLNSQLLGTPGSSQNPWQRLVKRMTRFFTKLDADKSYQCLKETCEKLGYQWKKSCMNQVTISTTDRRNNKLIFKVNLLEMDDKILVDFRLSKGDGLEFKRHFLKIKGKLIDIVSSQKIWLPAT
MEASURED_PARAMETER: IC50 (nM)
Reply with just the number (in nM).

input: So what IC50 did CN1CCN(c2ccc(Nc3ncc(C#N)c(Nc4ccccc4C(N)=O)n3)cc2)CC1.Cl [TCMDC-134116] get with UniProt O14757?
output: 220

====

// each record: one item and its IC50 for CSNK2A2 (Homo sapiens)

CN1CCN(c2ccc(Nc3ncc(C#N)c(Nc4ccccc4C(N)=O)n3)cc2)CC1.Cl | ≤ 0.032 µM

Okay, next one:
input: Would you kindly share the measured IC50 for `Cl.NCC1(c2nc(-c3ccc(Cl)c(O)c3)c(-c3ccncc3)[nH]2)CCCCC1` ?
output: > 20 µM

====

Target: Plasmodium falciparum protein kinase 6 (PK6) (Plasmodium falciparum, UniProt Q8IDW1)
Construct: 6-Histidine (N); made in house
Sequence (Q8IDW1 1-305): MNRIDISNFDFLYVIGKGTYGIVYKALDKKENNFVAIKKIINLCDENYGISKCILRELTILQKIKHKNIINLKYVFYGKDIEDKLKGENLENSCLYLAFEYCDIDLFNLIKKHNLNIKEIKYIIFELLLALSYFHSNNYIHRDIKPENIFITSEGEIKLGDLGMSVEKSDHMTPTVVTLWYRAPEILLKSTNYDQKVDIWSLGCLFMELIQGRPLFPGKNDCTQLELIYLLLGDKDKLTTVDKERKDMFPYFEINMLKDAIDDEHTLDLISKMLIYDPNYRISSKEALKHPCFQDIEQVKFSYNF
Test: biochemical
Details: hits below 1 uM; read-out: PK6 IC50
MEASURED_PARAMETER: IC50 (nM)
# number only, unit nM dropped from output

The following compounds have reported results that may help.
CS(=O)(=O)Cc1ccc(Nc2nccc(-c3c(-c4cccc(C(=O)Nc5c(F)cccc5F)c4)nn4ccccc34)n2)cc1 [TCMDC-135742] | 105
O=C(Nc1cccc(-c2nn3ccccc3c2-c2ccnc(Nc3ccc(NCCCN4CCOCC4)c(F)c3)n2)c1)c1c(F)cccc1F [TCMDC-135921] | 580

input: I'd like to know its IC50. The compound in question is CS(=O)(=O)Cc1ccc(Nc2nccc(N3CCCc4cc(NC(=O)Nc5cccc(C(F)(F)F)c5)ccc43)n2)cc1 [TCMDC-134309]
output: 385

input: Return reported IC50; argument: Br.CC(=O)Nc1nc(C)c(-c2csc(Nc3ccc(Cl)cc3)n2)s1 [TCMDC-123995]
output: 95

input: // IC50 lookup, key: CN(c1ccc2c(c1)nc(NCc1ccccc1)n2C)c1ccnc(Nc2ccc(CS(C)(=O)=O)cc2)n1.Cl [TCMDC-138740]
output: 464

input: # input compound: CN(c1ccc(NC(=O)Nc2cc(C(F)(F)F)ccc2F)cc1)c1ccnc(NCCN2CCOCC2)n1.O=C(O)C(F)(F)F [TCMDC-141590] ; wanted: its IC50
output: 520

input: Look at this compound and give its reported IC50. CN(C)CC(O)COc1ccc(Nc2ncc([N+](=O)[O-])c(Nc3ccccc3O)n2)cc1.O=C(O)C(F)(F)F (stereo not drawn) [TCMDC-141399]
output: 67

input: Entry under review: O=CO.O=S1(=O)NCc2ccc(Nc3nccc(Nc4ccc5c(cnn5Cc5ccccc5)c4)n3)cc21 [TCMDC-138840] . Reported IC50?
output: 265

input: Given the compound COc1ccc(Nc2ncc(OC)c(Nc3ccccc3C(N)=O)n2)cc1N1CCN(C)CC1.O=CO [TCMDC-134149] , what is its reported IC50?
output: 270

input: # input compound: COc1ccc(Nc2ncc(C#N)c(Nc3ccccc3C(N)=O)n2)cc1N1CCN(C)CC1.Cl [TCMDC-134117] ; wanted: its IC50
output: 61

input: What IC50 value was documented for this compound, CNC(=O)c1ccccc1Nc1nc(Nc2ccc(N3CCN(C)CC3)nc2)ncc1C.Cl [TCMDC-134123] ?
output: 143

input: Given Cc1ccc(Nc2nc3cc(Nc4ccnc(Nc5cccc(CS(C)(=O)=O)c5)n4)ccc3o2)cc1.O=C(O)C(F)(F)F [TCMDC-141957] , state its recorded IC50.
output: 229

input: I have this compound here, C#CCNC(=O)c1ccc(-c2ccnc(Nc3cccc(CCCN4CCOCC4)c3)n2)s1 [TCMDC-136764] , and I need its recorded IC50.
output: 181

input: Requested read-out: IC50. Entry: COc1ccc(Nc2ncc(Cl)c(Nc3cccnc3C(N)=O)n2)cc1N1CCN(C)CC1.Cl [TCMDC-134163]
output: 86

input: Please look up its IC50: COc1c(CN2CCCC2)cccc1-c1cc2c(-c3ccc(C(=O)O)c(C(C)C)c3)ccnc2[nH]1.O=C(O)C(F)(F)F [TCMDC-135050]
output: 541

====

Biological target: ACVR1B (Homo sapiens)
Sequence (P36896 whole entry): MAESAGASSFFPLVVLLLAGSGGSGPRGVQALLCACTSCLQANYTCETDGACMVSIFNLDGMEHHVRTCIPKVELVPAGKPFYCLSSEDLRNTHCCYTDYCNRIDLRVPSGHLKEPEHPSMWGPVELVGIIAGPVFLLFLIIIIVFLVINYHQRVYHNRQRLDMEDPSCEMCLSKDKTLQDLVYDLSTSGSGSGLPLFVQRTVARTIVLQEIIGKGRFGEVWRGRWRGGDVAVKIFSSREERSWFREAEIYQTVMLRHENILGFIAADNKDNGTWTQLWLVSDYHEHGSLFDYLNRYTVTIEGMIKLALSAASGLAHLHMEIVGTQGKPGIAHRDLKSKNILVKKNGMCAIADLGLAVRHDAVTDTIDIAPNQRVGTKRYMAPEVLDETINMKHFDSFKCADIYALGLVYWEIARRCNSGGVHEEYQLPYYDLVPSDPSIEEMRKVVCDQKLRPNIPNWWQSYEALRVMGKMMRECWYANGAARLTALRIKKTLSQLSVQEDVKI
Assay: biochemical
Settings: read-out: KDapp
Reported Kd values for a set of molecules
Reply numerically in nM, unit not repeated.

Cl.NCC1(c2nc(-c3ccc(Cl)c(O)c3)c(-c3ccncc3)[nH]2)CCCCC1 | 240

Could you now consider this next molecule?
input: Which value of Kd has been reported for `CN1CCN(c2ccc(Nc3ncc(C#N)c(Nc4ccccc4C(N)=O)n3)cc2)CC1.Cl` in the records?
output: 1630

====

Molecular target: UniProt P29597
Sequence (P29597 whole entry): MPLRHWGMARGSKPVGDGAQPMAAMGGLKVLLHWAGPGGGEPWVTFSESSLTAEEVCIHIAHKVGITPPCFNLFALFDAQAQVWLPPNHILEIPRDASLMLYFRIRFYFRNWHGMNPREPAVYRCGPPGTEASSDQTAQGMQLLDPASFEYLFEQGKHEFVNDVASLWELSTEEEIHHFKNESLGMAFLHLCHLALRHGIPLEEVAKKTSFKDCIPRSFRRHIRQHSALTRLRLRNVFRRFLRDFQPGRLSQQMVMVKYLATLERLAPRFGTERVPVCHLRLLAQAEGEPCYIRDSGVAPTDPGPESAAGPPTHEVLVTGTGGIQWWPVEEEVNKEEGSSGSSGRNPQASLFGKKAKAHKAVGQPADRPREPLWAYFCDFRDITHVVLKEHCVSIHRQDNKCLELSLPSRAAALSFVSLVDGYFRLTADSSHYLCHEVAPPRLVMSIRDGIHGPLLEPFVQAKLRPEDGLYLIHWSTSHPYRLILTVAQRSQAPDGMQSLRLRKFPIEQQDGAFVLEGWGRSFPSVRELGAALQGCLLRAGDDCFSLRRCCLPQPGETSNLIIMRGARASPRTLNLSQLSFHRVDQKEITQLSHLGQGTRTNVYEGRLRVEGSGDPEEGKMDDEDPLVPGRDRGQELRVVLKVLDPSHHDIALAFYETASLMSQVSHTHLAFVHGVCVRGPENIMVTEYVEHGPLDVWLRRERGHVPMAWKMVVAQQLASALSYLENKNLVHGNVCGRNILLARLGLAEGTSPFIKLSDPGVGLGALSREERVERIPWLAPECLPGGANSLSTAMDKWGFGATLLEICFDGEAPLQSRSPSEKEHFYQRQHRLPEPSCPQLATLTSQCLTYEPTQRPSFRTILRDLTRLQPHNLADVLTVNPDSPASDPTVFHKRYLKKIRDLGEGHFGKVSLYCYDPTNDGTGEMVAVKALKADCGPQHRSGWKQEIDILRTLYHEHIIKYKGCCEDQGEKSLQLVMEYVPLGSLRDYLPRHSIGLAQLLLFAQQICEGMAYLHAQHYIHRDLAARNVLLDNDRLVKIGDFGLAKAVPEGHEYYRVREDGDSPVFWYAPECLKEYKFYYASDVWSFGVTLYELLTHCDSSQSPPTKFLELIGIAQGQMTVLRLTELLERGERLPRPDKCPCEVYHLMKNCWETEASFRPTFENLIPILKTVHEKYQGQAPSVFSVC
Experiment: biochemical
Conditions: read-out: KDapp
MEASURED_PARAMETER: Kd (nM)
# unit: nM | format: bare number

input: What measured Kd goes with CN(C)CC(O)COc1ccc(Nc2ncc([N+](=O)[O-])c(Nc3ccccc3O)n2)cc1.O=C(O)C(F)(F)F (stereo not shown) ?
output: 677

====

Biological target: UniProtKB Q2M2I8
Sequence (Q2M2I8 whole entry): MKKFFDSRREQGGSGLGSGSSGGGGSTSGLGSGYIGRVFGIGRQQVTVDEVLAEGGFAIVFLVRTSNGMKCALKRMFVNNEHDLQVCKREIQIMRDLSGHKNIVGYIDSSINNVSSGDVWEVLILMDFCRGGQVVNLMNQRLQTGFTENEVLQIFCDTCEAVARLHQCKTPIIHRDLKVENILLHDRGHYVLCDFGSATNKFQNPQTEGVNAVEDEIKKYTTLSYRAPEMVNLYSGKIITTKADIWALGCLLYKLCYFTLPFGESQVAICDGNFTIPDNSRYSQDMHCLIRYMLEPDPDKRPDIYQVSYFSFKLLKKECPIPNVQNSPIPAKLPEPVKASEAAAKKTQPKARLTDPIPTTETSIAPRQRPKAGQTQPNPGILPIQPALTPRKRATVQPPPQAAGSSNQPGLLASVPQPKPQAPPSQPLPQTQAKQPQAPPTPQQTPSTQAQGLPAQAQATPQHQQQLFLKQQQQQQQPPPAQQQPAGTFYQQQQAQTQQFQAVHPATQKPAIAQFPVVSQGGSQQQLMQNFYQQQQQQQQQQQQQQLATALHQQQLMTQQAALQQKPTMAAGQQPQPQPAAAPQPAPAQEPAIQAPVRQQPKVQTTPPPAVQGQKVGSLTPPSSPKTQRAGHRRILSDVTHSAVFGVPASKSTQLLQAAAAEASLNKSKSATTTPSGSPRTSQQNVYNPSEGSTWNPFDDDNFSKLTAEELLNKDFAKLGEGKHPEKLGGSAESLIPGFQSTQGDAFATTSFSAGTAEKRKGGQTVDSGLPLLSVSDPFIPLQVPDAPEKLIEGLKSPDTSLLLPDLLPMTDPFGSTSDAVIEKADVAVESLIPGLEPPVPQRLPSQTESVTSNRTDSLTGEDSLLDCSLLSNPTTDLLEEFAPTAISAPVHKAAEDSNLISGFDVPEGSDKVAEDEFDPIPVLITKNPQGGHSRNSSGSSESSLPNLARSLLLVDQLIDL
Experiment: biochemical
Details: read-out: KDapp
MEASURED_PARAMETER: pKd
Please report pKd as the negative decimal logarithm of the molar concentration, giving only the number.

input: For the molecule shown here, CN1CCN(c2ccc(Nc3ncc(C#N)c(Nc4ccccc4C(N)=O)n3)cc2)CC1.Cl [TCMDC-134116] , give the reported pKd.
output: 7.44
